Reference for the values: paper PMC5216056

- ASSAY_SYSTEM: human NAPE-PLD (Homo sapiens)
- Construct: Full length human cDNA NAPE-PLD was obtained from Natsuo Ueda; expressed in transfected cells; host or cells: HEK293T (transient), membrane fraction
- Sequence (Q6IQ20 whole entry): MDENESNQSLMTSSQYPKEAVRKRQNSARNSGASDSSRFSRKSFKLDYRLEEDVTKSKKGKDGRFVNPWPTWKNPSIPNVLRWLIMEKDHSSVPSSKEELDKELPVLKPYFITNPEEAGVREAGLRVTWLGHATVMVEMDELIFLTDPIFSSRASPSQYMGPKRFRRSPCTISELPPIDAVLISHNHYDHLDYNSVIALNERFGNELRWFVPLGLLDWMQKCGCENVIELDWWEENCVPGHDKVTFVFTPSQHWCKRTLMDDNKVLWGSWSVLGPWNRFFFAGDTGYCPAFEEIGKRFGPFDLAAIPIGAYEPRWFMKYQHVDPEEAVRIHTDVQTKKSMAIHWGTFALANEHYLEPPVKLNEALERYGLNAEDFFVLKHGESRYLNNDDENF
- EXPERIMENT: NAPE-PLD inhibition
- Format: biochemical
- MEASUREMENT_SETUP: read-out: NAPE-PLD % inhibition at 10 µM ± SD
Please respond with reported inhibition at 10 µM for every item in the list.
Numeric answer only, unit % assumed.

Lab entry: human NAPE-PLD (Homo sapiens) assay, molecule Cc1c(C(=O)NN2CCCCC2)nn(-c2ccc(Cl)cc2Cl)c1-c1ccc(Cl)cc1 [SR141716A] , inhibition at 10 µM = 0

Lab entry: human NAPE-PLD (Homo sapiens) assay, molecule CCCCC/C=C\C/C=C\C/C=C\C/C=C\CCCC(=O)OC(CO)CO , inhibition at 10 µM = -1

Lab entry: human NAPE-PLD (Homo sapiens) assay, molecule CCCCCCC(C)(C)c1cc(OC)c([C@@H]2C=C(CO)[C@@H]3C[C@H]2C3(C)C)c(OC)c1 , inhibition at 10 µM = 2

Lab entry: human NAPE-PLD (Homo sapiens) assay, molecule CCCCC/C=C\C/C=C\C/C=C\C/C=C\CCCC(=O)NCCO [Anandamide, N-arachidonoylethanolamine] , inhibition at 10 µM = 17

Lab entry: human NAPE-PLD (Homo sapiens) assay, molecule CCCCCCC(C)(C)c1ccc([C@@H]2C[C@H](O)CC[C@H]2CCCO)c(O)c1 , inhibition at 10 µM = 10
